Data provenance is ChEMBL document CHEMBL5579788.

Reported IC50 for target or system Replicase polyprotein 1ab (Severe acute respiratory syndrome coronavirus 2), by entry.
The answer is to be given in µM; state only the numeric part.

Below are worked cases with known answers.
[[record]]
molecule = "Cc1ccc(N2C(=O)C[n+]3ccccc3C2C(=O)Nc2ccc(Cl)cc2)cc1Br (stereo not given)"
reported_endpoint = "IC50"
display_unit = "µM"
obs_value = 4.5

[[record]]
molecule = "CN1C(=O)C[n+]2ccccc2C1C(=O)Nc1ccccc1 (stereo not given)"
reported_endpoint = "IC50"
display_unit = "µM"
obs_value = 8.9

[[record]]
molecule = "O=C(Nc1ccc(Cl)cc1)C1c2cccc[n+]2CC(=O)N1c1ccc(Cl)cc1 (stereo not given)"
reported_endpoint = "IC50"
display_unit = "µM"
obs_value = 9.6


Find the recorded IC50 belonging to O=C(Nc1ccc(Cl)cc1)C1c2cccc[n+]2CC(=O)N1c1ccc(Br)cc1 (stereo not given) and report it. 8.5

Find the recorded IC50 belonging to O=C(Nc1ccc(Cl)cc1)C1c2cccc[n+]2CC(=O)N1c1cccc(Cl)c1 (stereo not given) and report it. 5.1
